system: Saccharomyces cerevisiae; test: fraction of cells in G1 phase (DNA content, flow cytometry); higher = more cells with unreplicated DNA (G1 delay); conditions: temperature: 30 C; YPD; JTY2953 pdr5 snq2 (sensitized); drug added to: cultures diluted from stationary phase; 6-7 h
Counter-ions that a name gives are not always drawn.
property.measured: fraction of cells in G1 phase

compound	test.value
Cn1ccnc1S [Methimazole] (175.178 µM)	0.473
Cc1scc2c1N(C(=O)CN1CCN(C)CC1)c1ccccc1NC2=O [Telenzepine 2HCl] (53.9845 µM)	0.498
CN(C)CCC[C@@]1(c2ccc(F)cc2)OCc2cc(C#N)ccc21 [Escitalopram] (61.652 µM)	0.496
Nc1nc2ccc(OC(F)(F)F)cc2s1 [Riluzole HCl] (85.3967 µM)	0.551
NC[C@@H]1O[C@H](O[C@H]2[C@@H](O)[C@H](O[C@@H]3[C@@H](O)[C@H](N)C[C@H](N)[C@H]3O[C@H]3O[C@H](CN)[C@@H](O)[C@H](O)[C@H]3N)O[C@@H]2CO)[C@H](N)[C@@H](O)[C@@H]1O [Neomycin sulfate] (32.5386 µM)	0.495
CC/C(=C(/CC)c1ccc(O)cc1)c1ccc(O)cc1 [Diethylstilbestrol] (74.5271 µM)	0.838
C[C@H]1COc2c(N3CCN(C)CC3)c(F)cc3c(=O)c(C(=O)O)cn1c23 [Levofloxacin HCl] (55.344 µM)	0.471
O=C(O)c1cc(/N=N/c2ccc(S(=O)(=O)Nc3ccccn3)cc2)ccc1O [Sulfasalazine] (50.2008 µM)	0.517
O=C1CC2(CCCC2)CC(=O)N1CCCCN1CCN(c2ncccn2)CC1 [Buspirone HCl] (51.8789 µM)	0.499
COc1ccc2[nH]c([S+]([O-])Cc3ncc(C)c(OC)c3C)nc2c1 (centres undefined) [Omeprazole] (57.9 µM)	0.486
CCCc1cc(C(N)=S)ccn1 [Prothionamide] (110.943 µM)	0.482
OC(Cn1cncn1)(Cn1cncn1)c1ccc(F)cc1F [Fluconazole] (65.3004 µM)	0.611
C=C(c1ccc(C(=O)O)cc1)c1cc2c(cc1C)C(C)(C)CCC2(C)C [Bexarotene] (57.3905 µM)	0.546
CCOC(=O)C1=C(C)NC(C)=C(C(=O)OCC)C1c1ccccc1/C=C/C(=O)OC(C)(C)C [Lacidipine] (43.9024 µM)	0.516
O=C1NCN(c2ccccc2)C12CCN(CCCC(c1ccc(F)cc1)c1ccc(F)cc1)CC2 [Fluspirilene] (42.0533 µM)	0.865
CCCCNc1cc(C(=O)O)cc(S(N)(=O)=O)c1Oc1ccccc1 [Bumetanide] (54.8812 µM)	0.566
Cc1onc(-c2ccccc2)c1C(=O)N[C@@H]1C(=O)N2[C@@H]1SC(C)(C)[C@@H]2C(=O)O [Oxacillin sodium monohydrate] (49.9455 µM)	0.486
COc1ccc(CN2CCN(C(c3ccc(F)cc3)c3ccc(F)cc3)CC2)c(OC)c1OC [Lomerizine HCl] (42.685 µM)	0.638
CC1CCc2c(N3CCC(O)CC3)c(F)cc3c(=O)c(C(=O)O)cn1c23 (centres undefined) [Nadifloxacin] (55.4956 µM)	0.281
CCC(C)(C)C(=O)O[C@H]1C[C@@H](C)C=C2C=C[C@H](C)[C@H](CC[C@@H]3C[C@@H](O)CC(=O)O3)[C@H]21 [Simvastatin] (47.7808 µM)	0.879
CC(=O)O[C@]1(C(C)=O)CC[C@H]2[C@@H]3C=C(C)C4=CC(=O)CC[C@]4(C)[C@H]3CC[C@@]21C [Megestrol acetate] (52.0129 µM)	0.575
COc1c(C)c2c(c(O)c1C/C=C(\C)CCC(=O)OCCN1CCOCC1)C(=O)OC2 [Mycophenolate mofetil] (46.1355 µM)	0.513
COc1ccc(CN(CCN(C)C)c2ccccn2)cc1 [Mepyramine maleate] (70.079 µM)	0.495
CC(C)NCC(O)COc1cccc2[nH]ccc12 (centres undefined) [Pindolol] (80.5387 µM)	0.515
N=C(N)N1CCc2ccccc2C1 [Debrisoquin sulfate] (114.132 µM)	0.513
OCc1cc(C(O)CNCCCCCCOCCCCc2ccccc2)ccc1O (centres undefined) [Salmeterol] (48.1257 µM)	0.472
CCCCNC(=O)NS(=O)(=O)c1ccc(C)cc1 [Tolbutamide] (73.9774 µM)	0.505
COc1cc2c3cc1Oc1cc(ccc1O)C[C@@H]1c4c(cc(OC)c(O)c4Oc4ccc(cc4)C[C@@H]3N(C)CC2)CC[N+]1(C)C [Tubocurarine Cl (+)] (32.8004 µM)	0.464
Cc1c(C)c2c(c(C)c1O)CCC(C)(COc1ccc(CC3SC(=O)NC3=O)cc1)O2 (centres undefined) [Troglitazone] (45.2949 µM)	0.591

---

test system: Saccharomyces cerevisiae; assay: fraction of cells in G1 phase (DNA content, flow cytometry); higher = more cells with unreplicated DNA (G1 delay); settings: temperature: 30 C; YPD; JTY2953 pdr5 snq2 (sensitized); drug added to: cultures diluted from stationary phase; 6-7 h
Where a name gives a salt, the structure may show the parent alone.
property.measured: fraction of cells in G1 phase

> print(dat)
                                   compound  test.value
1  Cc1cc2c(s1)Nc1ccccc1N=C2N1CCN(C)CC1 [Olanzapine] (64.0123 µM)       0.527
2  Nc1ncnc2c1ncn2[C@@H]1O[C@H](CO)[C@@H](O)[C@@H]1O [Vidarabine] (74.8374 µM)       0.481
3  Cn1nnc2c(C(N)=O)ncn2c1=O [Temozolomide] (103.011 µM)        0.48
4  CC(C)OC(=O)C(C)(C)Oc1ccc(C(=O)c2ccc(Cl)cc2)cc1 [Fenofibrate] (55.4261 µM)       0.497
5  CN(C)CCN1C(=O)c2ccccc2N(C)c2ccccc21 [Dibenzepine HCl] (67.7077 µM)       0.479
6  CC(=O)N1CCN(c2ccc(OCC3COC(Cn4ccnc4)(c4ccc(Cl)cc4Cl)O3)cc2)CC1 (stereo not drawn) [Ketoconazole] (37.6334 µM)       0.747
7  C[C@]12CC[C@@H]3c4ccc(O)cc4CC[C@H]3[C@@H]1CCC2=O [Estrone] (73.9714 µM)       0.508
8  CCCN[C@H]1CCc2nc(N)sc2C1 [Pramipexole] (94.6382 µM)        0.48

---

Items are presented alongside their recorded fraction of cells in G1 phase.
test system: Saccharomyces cerevisiae; test: fraction of cells in G1 phase (DNA content, flow cytometry); higher = more cells with unreplicated DNA (G1 delay); details: temperature: 30 C; YPD; JTY2953 pdr5 snq2 (sensitized); drug added to: cultures diluted from stationary phase; 6-7 h
Structures can show the parent of a compound that is named as a salt.
property.measured: fraction of cells in G1 phase

> print(dat)
                                   compound        measurement.target              property.measured  test.value
1  O=c1[nH]c(=O)n([C@H]2C[C@H](O)[C@@H](CO)O2)cc1I [Idoxuridine] (56.4808 µM)  Saccharomyces cerevisiae  fraction of cells in G1 phase       0.515
2  Nc1c(Br)cc(Br)cc1CN[C@H]1CC[C@H](O)CC1 [Ambroxol] (52.8948 µM)  Saccharomyces cerevisiae  fraction of cells in G1 phase       0.529
3  COCCOC(=O)C1=C(C)NC(C)=C(C(=O)OC(C)C)C1c1cccc([N+](=O)[O-])c1 (stereo not drawn) [Nimodipine] (47.7954 µM)  Saccharomyces cerevisiae  fraction of cells in G1 phase       0.521
4  Nc1nc(O)c2ncn(CCC(CO)CO)c2n1 [Penciclovir] (78.9694 µM)  Saccharomyces cerevisiae  fraction of cells in G1 phase       0.461
5  CC(=O)OCC(=O)NCCCOc1cccc(CN2CCCCC2)c1 [Roxatidine acetate HCl] (57.3977 µM)  Saccharomyces cerevisiae  fraction of cells in G1 phase       0.461
6  CCN(Cc1ccncc1)C(=O)C(CO)c1ccccc1 (stereo not drawn) [Tropicamide] (70.3331 µM)  Saccharomyces cerevisiae  fraction of cells in G1 phase       0.521
7  CC(C)[N+]1(C)[C@@H]2CC[C@H]1CC(OC(=O)C(CO)c1ccccc1)C2 (stereo partly drawn) [Ipratropium Br] (60.1563 µM)  Saccharomyces cerevisiae  fraction of cells in G1 phase       0.508
8  Cc1ccc(S(=O)(=O)NC(=O)NN2CC3CCCC3C2)cc1 (stereo not drawn) [Gliclazide] (61.8397 µM)  Saccharomyces cerevisiae  fraction of cells in G1 phase        0.51

---

system: Saccharomyces cerevisiae; test: fraction of cells in G1 phase (DNA content, flow cytometry); higher = more cells with unreplicated DNA (G1 delay); conditions: temperature: 30 C; YPD; JTY2953 pdr5 snq2 (sensitized); drug added to: cultures diluted from stationary phase; 6-7 h
Where a name gives a salt, the structure may show the parent alone.
property.measured: fraction of cells in G1 phase

> print(dat)
                                   compound  test.value
1  CCCCN1CCCCC1C(=O)Nc1c(C)cccc1C (stereo not drawn) [Bupivacaine HCl] (69.3393 µM)       0.447
2  CCCCC(C)(O)C/C=C/[C@H]1[C@H](O)CC(=O)[C@@H]1CCCCCCC(=O)OC (mixture of isomers) [Misoprostol] (52.2814 µM)       0.499
3  Cc1c(O)cccc1C(=O)N[C@@H](CSc1ccccc1)[C@H](O)CN1C[C@H]2CCCC[C@H]2C[C@H]1C(=O)NC(C)(C)C [Nelfinavir Mesylate] (30.1249 µM)       0.487
